run.description: qHTS assay for small molecule agonists of the p53 signaling pathway - cell viability (AID 651633); also: nearly all actives have a fitted effect of over 30% in size
condition.context: p53RE-bla HCT-116 viability, ATP luminescence, 16 h; series mostly up to 83.3 µM
Inconclusive results are not listed. The source made the active and inactive calls. Calls follow the shape of the full dose curve.
Choose one outcome from this list and give only that: 1 for active, 0 for inactive

Consider the following illustrative entries.
compound: CNS(=O)(=O)c1cc(C(=O)N2CCC(CCN3C4CCC3CC(n3c(C)nc5ccccc53)C4)(c3cccc(F)c3)CC2)c(Cl)cc1F (stereo unspecified)
category: 1

compound: BrC(Br)C(Br)Br
category: 0

compound: CNCc1ccc(NC(=O)c2c[nH]c3c2C(=O)CCC3)cc1
category: 0

# fetch the recorded call for FC(F)(F)C(F)(F)C(F)(F)C(F)(F)CCI here
0

CC(=O)OCCC1CCCCC1 ?
0

COc1ccc2nc(S(=O)Cc3ncc(C)c(OC)c3C)[nH]c2c1 (stereo unspecified) ?
0

CC[C@H]1OC(=O)[C@H](C)[C@@H](O[C@H]2C[C@@](C)(OC)[C@@H](O)[C@H](C)O2)[C@H](C)[C@@H](O[C@@H]2O[C@H](C)C[C@H](N(C)C)[C@H]2O)[C@](C)(O)C[C@@H](C)CN(C)[C@H](C)[C@@H](O)[C@]1(C)O ?
0

CC(C)C(=O)OCCOc1ccccc1 ?
0

CCCOC(=O)c1c(Cl)c(Cl)c(Cl)c(Cl)c1C(=O)OCCC ?
0

CCSC(=O)N(CC)CC ?
0

c1ccc(CCCc2ccncc2)cc1 ?
0

O=C(c1ccccc1)c1ccc(O)cc1 ?
0

* * *

target.of.assay: Progesterone receptor (Homo sapiens) (UniProt P06401)
Sequence (P06401 whole entry, looked up): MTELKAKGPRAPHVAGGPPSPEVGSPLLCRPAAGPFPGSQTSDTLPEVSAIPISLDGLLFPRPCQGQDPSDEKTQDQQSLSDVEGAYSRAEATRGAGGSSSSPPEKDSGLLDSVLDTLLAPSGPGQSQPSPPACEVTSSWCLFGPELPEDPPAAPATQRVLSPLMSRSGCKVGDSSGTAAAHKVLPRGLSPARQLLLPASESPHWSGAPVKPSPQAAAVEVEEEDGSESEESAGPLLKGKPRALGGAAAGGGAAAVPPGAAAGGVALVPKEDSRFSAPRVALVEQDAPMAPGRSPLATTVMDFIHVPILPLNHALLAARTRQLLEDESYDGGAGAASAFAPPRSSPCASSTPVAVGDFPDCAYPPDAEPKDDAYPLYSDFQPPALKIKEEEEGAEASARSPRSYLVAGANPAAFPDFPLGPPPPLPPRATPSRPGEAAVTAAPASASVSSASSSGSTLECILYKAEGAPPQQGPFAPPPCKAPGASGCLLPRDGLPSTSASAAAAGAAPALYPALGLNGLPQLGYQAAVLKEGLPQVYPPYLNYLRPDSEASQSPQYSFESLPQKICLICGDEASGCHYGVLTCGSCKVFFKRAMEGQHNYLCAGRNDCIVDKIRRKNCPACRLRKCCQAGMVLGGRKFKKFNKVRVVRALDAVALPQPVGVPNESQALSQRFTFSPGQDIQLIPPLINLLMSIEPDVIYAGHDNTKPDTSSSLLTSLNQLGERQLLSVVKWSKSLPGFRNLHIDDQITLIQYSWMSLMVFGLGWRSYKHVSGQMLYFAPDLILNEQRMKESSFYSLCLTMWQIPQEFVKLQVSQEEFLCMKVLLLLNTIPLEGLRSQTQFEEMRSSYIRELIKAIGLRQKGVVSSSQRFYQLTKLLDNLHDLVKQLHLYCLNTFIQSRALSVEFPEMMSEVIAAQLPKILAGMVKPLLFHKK
run.description: qHTS assay to identify small molecule agonists of the progesterone receptor (PR) signaling pathway (AID 1346784); also: nearly all actives have a fitted effect of over 30% in size
condition.context: PR-UAS-bla HEK293T, beta-lactamase FRET ratio, 16 h; series mostly up to 92.4 µM
Results filed as inconclusive are left out. Calls of active or inactive are those of the source. Calls follow the shape of the full dose curve.
Choose one outcome from this list and give only that: y = active, n = inactive

Consider the following illustrative entries.
compound: COC(=O)CC(C(C)=O)C(=O)OC (stereo unspecified)
category: n

compound: CC(=O)NNC(C)=O
category: n

compound: O=C(O)c1cccc(C[C@@H]2COc3ccc(OCc4nc5cc(F)ccc5s4)cc3[C@@H]2O)c1
category: n

# fetch the recorded call for CC/C=C\C/C=C\C/C=C\CCCCCCCC(=O)OCC here
n

CCCCCCCCCCCCCOC(=O)CCSCCC(=O)OCCCCCCCCCCCCC ?
y

COc1cc(NS(=O)(=O)c2ccc(N)cc2)nc(C)n1 ?
n

C/C(C=O)=C\c1ccccc1 ?
n

* * *

run.description: qHTS assay for small molecules that induce genotoxicity in human embryonic kidney cells expressing luciferase-tagged ATAD5 - cell viability (AID 651634); also: nearly all actives have a fitted effect of over 25% in size
condition.context: HEK293T ATAD5-luc cells viability, CellTiter-Fluor, 15.5 h; series mostly up to 83.3 µM
Records with an inconclusive call do not appear. Activity calls are given as the source filed them. Calls come from the whole dose curve.
Choose one outcome from this list and give only that: label 1 (active), label 0 (inactive)

Consider the following illustrative entries.
compound: O=C(/C=C/c1ccc([N+](=O)[O-])cc1)c1ccccc1
category: label 0
--
compound: CC(=O)OCC1=C(C(=O)O)N2C(=O)[C@@H](NC(=O)CSc3ccncc3)[C@H]2SC1
category: label 0
--
compound: Nc1ccc(N=Nc2ccc(N)cc2)cc1
category: label 1
--
compound: Cc1ccc(NC(=O)N(C)C)cc1NC(=O)N(C)C
category: label 0
--
compound: c1ccc(CNc2ncnc3c2ncn3C2CCCCO2)cc1 (centres undefined)
category: label 0

# input for lookup
# fetch the recorded call for Cc1ccc(S(=O)(=O)NC(=O)NC2CCCCC2)cc1 here
label 0
